- Tested on: LNCaP xenograft
- assay: Biodistribution of 68Ga-labeled compounds in mice bearing LNCaP xenograft
- Assay type: in vivo
- measurement.parameters: Fat, 1 h p.i.
Field: Biodistribution, Fat (Avg). Provide a value for each of the compounds that follow.
The reply should be a number in % ID/g, with the unit left off.

GET /values?readout=Biodistribution, Fat (Avg)&item= O=C(O)CCC[C@H](OC(=O)N[C@@H](CCCCNC(=O)[C@H](Cc1c2ccccc2cc2ccccc12)NC(=O)[C@H]1CC[C@H](CNC(=O)CCc2ccc(O)c(CN(CCN(CC(=O)O)Cc3cc(CCC(=O)O)ccc3O)CC(=O)O)c2)CC1)C(=O)O)C(=O)O.[68Ga] [^68Ga-AR-113-1]
0.56

GET /values?readout=Biodistribution, Fat (Avg)&item= O=C(O)CSCC(NC(=O)NC(CNC(=O)CNC(=O)C(Cc1c2ccccc2cc2ccccc12)NC(=O)C1CCC(CNC(=O)CN2CCN(CC(=O)O)CCN(CC(=O)O)CCN(CC(=O)O)CC2)CC1)C(=O)O)C(=O)O.[68Ga] (stereo not shown) [68Ga-CCZ01194]
0.27

GET /values?readout=Biodistribution, Fat (Avg)&item= O=C(O)CSCC(NC(=O)NC(Cc1ccc(NC(=O)C(Cc2c3ccccc3cc3ccccc23)NC(=O)C2CCC(CNC(=O)CN3CCN(CC(=O)O)CCN(CC(=O)O)CCN(CC(=O)O)CC3)CC2)cc1)C(=O)O)C(=O)O.[68Ga] (stereo not shown) [^68Ga-CCZ01188]
0.62

GET /values?readout=Biodistribution, Fat (Avg)&item= O=C(O)CCCC(NC(=O)NC(COCCNC(=O)C(Cc1c2ccccc2cc2ccccc12)NC(=O)C1CCC(CNC(=O)CN2CCN(CC(=O)O)CCN(CC(=O)O)CCN(CC(=O)O)CC2)CC1)C(=O)O)C(=O)O.[68Ga] (stereo not shown) [^68Ga-CCZ02011]
0.12

GET /values?readout=Biodistribution, Fat (Avg)&item= O=C(O)CCCC(NC(=O)NC(CCCONC(=O)C(Cc1c2ccccc2cc2ccccc12)NC(=O)C1CCC(CNC(=O)CN2CCN(CC(=O)O)CCN(CC(=O)O)CCN(CC(=O)O)CC2)CC1)C(=O)O)C(=O)O.[68Ga] (stereo not shown) [^68Ga-CCZ02018]
0.17

GET /values?readout=Biodistribution, Fat (Avg)&item= O=C(O)CCCC(NC(=O)NC(CNC(=O)CNC(=O)C(Cc1c2ccccc2cc2ccccc12)NC(=O)C1CCC(CNC(=O)CN2CCN(CC(=O)O)CCN(CC(=O)O)CCN(CC(=O)O)CC2)CC1)C(=O)O)C(=O)O.[68Ga] (stereo not shown) [68Ga-CCZ01198]
0.07

GET /values?readout=Biodistribution, Fat (Avg)&item= O=C(O)CSCC(NC(=O)NC(Cc1cn(CCNC(=O)C(Cc2c3ccccc3cc3ccccc23)NC(=O)C2CCC(CNC(=O)CN3CCN(CC(=O)O)CCN(CC(=O)O)CCN(CC(=O)O)CC3)CC2)nn1)C(=O)O)C(=O)O.[68Ga] (stereo not shown) [^68Ga-CCZ01186]
0.16

====

- Tested on: LNCaP xenograft
- assay: Biodistribution of 68Ga-labeled compounds in mice bearing LNCaP xenograft
- Type: in vivo
- measurement.parameters: Spleen, 1 h p.i.
attribute.measured: Biodistribution, Spleen (Avg) (% ID/g)
The reply should be a number in % ID/g, with the unit left off.

GET /values?readout=Biodistribution, Spleen (Avg)&item= O=C(O)CCCC(NC(=O)NC(CCCONC(=O)C(Cc1c2ccccc2cc2ccccc12)NC(=O)C1CCC(CNC(=O)CN2CCN(CC(=O)O)CCN(CC(=O)O)CCN(CC(=O)O)CC2)CC1)C(=O)O)C(=O)O.[68Ga] (stereo not drawn) [^68Ga-CCZ02018]
0.24

GET /values?readout=Biodistribution, Spleen (Avg)&item= O=C(O)CSCC(NC(=O)NC(CNC(=O)CNC(=O)C(Cc1c2ccccc2cc2ccccc12)NC(=O)C1CCC(CNC(=O)CN2CCN(CC(=O)O)CCN(CC(=O)O)CCN(CC(=O)O)CC2)CC1)C(=O)O)C(=O)O.[68Ga] (stereo not drawn) [68Ga-CCZ01194]
0.24

GET /values?readout=Biodistribution, Spleen (Avg)&item= O=C(O)CCC[C@H](OC(=O)N[C@@H](CCCCNC(=O)[C@H](Cc1c2ccccc2cc2ccccc12)NC(=O)[C@H]1CC[C@H](CNC(=O)CCc2ccc(O)c(CN(CCN(CC(=O)O)Cc3cc(CCC(=O)O)ccc3O)CC(=O)O)c2)CC1)C(=O)O)C(=O)O.[68Ga] [^68Ga-AR-113-1]
0.61

====

- Tested on: LNCaP xenograft
- assay: Biodistribution of 68Ga-labeled compounds in mice bearing LNCaP xenograft
- Type: in vivo
- measurement.parameters: Urine, 1 h p.i.
Threshold 400 % ID/g. Biodistribution, Urine (Avg) below it: 1 (yes). Biodistribution, Urine (Avg) at it or above: 0 (no).

Say whether its Biodistribution, Urine (Avg) is strictly beneath 400 % ID/g. Entry: O=C(O)CCCC(NC(=O)NC(COCCNC(=O)C(Cc1c2ccccc2cc2ccccc12)NC(=O)C1CCC(CNC(=O)CN2CCN(CC(=O)O)CCN(CC(=O)O)CCN(CC(=O)O)CC2)CC1)C(=O)O)C(=O)O.[68Ga] (stereo not shown) [^68Ga-CCZ02011]
1 (yes)

Say whether its Biodistribution, Urine (Avg) is strictly beneath 400 % ID/g. Entry: O=C(O)CSCC(NC(=O)NC(CNC(=O)CNC(=O)C(Cc1c2ccccc2cc2ccccc12)NC(=O)C1CCC(CNC(=O)CN2CCN(CC(=O)O)CCN(CC(=O)O)CCN(CC(=O)O)CC2)CC1)C(=O)O)C(=O)O.[68Ga] (stereo not shown) [68Ga-CCZ01194]
1 (yes)

Say whether its Biodistribution, Urine (Avg) is strictly beneath 400 % ID/g. Entry: O=C(O)CSCC(NC(=O)NC(Cc1ccc(NC(=O)C(Cc2c3ccccc3cc3ccccc23)NC(=O)C2CCC(CNC(=O)CN3CCN(CC(=O)O)CCN(CC(=O)O)CCN(CC(=O)O)CC3)CC2)cc1)C(=O)O)C(=O)O.[68Ga] (stereo not shown) [^68Ga-CCZ01188]
1 (yes)

Say whether its Biodistribution, Urine (Avg) is strictly beneath 400 % ID/g. Entry: O=C(O)CCCC(NC(=O)NC(CNC(=O)CNC(=O)C(Cc1c2ccccc2cc2ccccc12)NC(=O)C1CCC(CNC(=O)CN2CCN(CC(=O)O)CCN(CC(=O)O)CCN(CC(=O)O)CC2)CC1)C(=O)O)C(=O)O.[68Ga] (stereo not shown) [68Ga-CCZ01198]
1 (yes)

Say whether its Biodistribution, Urine (Avg) is strictly beneath 400 % ID/g. Entry: O=C(O)CSCC(NC(=O)NC(Cc1cn(CCNC(=O)C(Cc2c3ccccc3cc3ccccc23)NC(=O)C2CCC(CNC(=O)CN3CCN(CC(=O)O)CCN(CC(=O)O)CCN(CC(=O)O)CC3)CC2)nn1)C(=O)O)C(=O)O.[68Ga] (stereo not shown) [^68Ga-CCZ01186]
0 (no)

Say whether its Biodistribution, Urine (Avg) is strictly beneath 400 % ID/g. Entry: O=C(O)CCC[C@H](OC(=O)N[C@@H](CCCCNC(=O)[C@H](Cc1c2ccccc2cc2ccccc12)NC(=O)[C@H]1CC[C@H](CNC(=O)CCc2ccc(O)c(CN(CCN(CC(=O)O)Cc3cc(CCC(=O)O)ccc3O)CC(=O)O)c2)CC1)C(=O)O)C(=O)O.[68Ga] [^68Ga-AR-113-1]
1 (yes)

Say whether its Biodistribution, Urine (Avg) is strictly beneath 400 % ID/g. Entry: O=C(O)CCCC(NC(=O)NC(CCCONC(=O)C(Cc1c2ccccc2cc2ccccc12)NC(=O)C1CCC(CNC(=O)CN2CCN(CC(=O)O)CCN(CC(=O)O)CCN(CC(=O)O)CC2)CC1)C(=O)O)C(=O)O.[68Ga] (stereo not shown) [^68Ga-CCZ02018]
0 (no)

====

- System: LNCaP xenograft
- assay: Biodistribution of 68Ga-labeled compounds in mice bearing LNCaP xenograft
- Type: in vivo
- measurement.parameters: Muscle, 1 h p.i.
Field: Biodistribution, Muscle (Avg). Provide a value for each of the compounds that follow.
Record the result as a number with its unit.

Which Biodistribution, Muscle (Avg) is reported with LNCaP xenograft for this entry: O=C(O)CCC[C@H](OC(=O)N[C@@H](CCCCNC(=O)[C@H](Cc1c2ccccc2cc2ccccc12)NC(=O)[C@H]1CC[C@H](CNC(=O)CCc2ccc(O)c(CN(CCN(CC(=O)O)Cc3cc(CCC(=O)O)ccc3O)CC(=O)O)c2)CC1)C(=O)O)C(=O)O.[68Ga] [^68Ga-AR-113-1] ?
0.49 % ID/g

Which Biodistribution, Muscle (Avg) is reported with LNCaP xenograft for this entry: O=C(O)CCCC(NC(=O)NC(CNC(=O)CNC(=O)C(Cc1c2ccccc2cc2ccccc12)NC(=O)C1CCC(CNC(=O)CN2CCN(CC(=O)O)CCN(CC(=O)O)CCN(CC(=O)O)CC2)CC1)C(=O)O)C(=O)O.[68Ga] (stereo not shown) [68Ga-CCZ01198] ?
0.07 % ID/g

Which Biodistribution, Muscle (Avg) is reported with LNCaP xenograft for this entry: O=C(O)CSCC(NC(=O)NC(Cc1ccc(NC(=O)C(Cc2c3ccccc3cc3ccccc23)NC(=O)C2CCC(CNC(=O)CN3CCN(CC(=O)O)CCN(CC(=O)O)CCN(CC(=O)O)CC3)CC2)cc1)C(=O)O)C(=O)O.[68Ga] (stereo not shown) [^68Ga-CCZ01188] ?
0.41 % ID/g

Which Biodistribution, Muscle (Avg) is reported with LNCaP xenograft for this entry: O=C(O)CCCC(NC(=O)NC(COCCNC(=O)C(Cc1c2ccccc2cc2ccccc12)NC(=O)C1CCC(CNC(=O)CN2CCN(CC(=O)O)CCN(CC(=O)O)CCN(CC(=O)O)CC2)CC1)C(=O)O)C(=O)O.[68Ga] (stereo not shown) [^68Ga-CCZ02011] ?
0.15 % ID/g

Which Biodistribution, Muscle (Avg) is reported with LNCaP xenograft for this entry: O=C(O)CCCC(NC(=O)NC(CCCONC(=O)C(Cc1c2ccccc2cc2ccccc12)NC(=O)C1CCC(CNC(=O)CN2CCN(CC(=O)O)CCN(CC(=O)O)CCN(CC(=O)O)CC2)CC1)C(=O)O)C(=O)O.[68Ga] (stereo not shown) [^68Ga-CCZ02018] ?
0.10 % ID/g

Which Biodistribution, Muscle (Avg) is reported with LNCaP xenograft for this entry: O=C(O)CSCC(NC(=O)NC(CNC(=O)CNC(=O)C(Cc1c2ccccc2cc2ccccc12)NC(=O)C1CCC(CNC(=O)CN2CCN(CC(=O)O)CCN(CC(=O)O)CCN(CC(=O)O)CC2)CC1)C(=O)O)C(=O)O.[68Ga] (stereo not shown) [68Ga-CCZ01194] ?
0.14 % ID/g

Which Biodistribution, Muscle (Avg) is reported with LNCaP xenograft for this entry: O=C(O)CSCC(NC(=O)NC(Cc1cn(CCNC(=O)C(Cc2c3ccccc3cc3ccccc23)NC(=O)C2CCC(CNC(=O)CN3CCN(CC(=O)O)CCN(CC(=O)O)CCN(CC(=O)O)CC3)CC2)nn1)C(=O)O)C(=O)O.[68Ga] (stereo not shown) [^68Ga-CCZ01186] ?
0.23 % ID/g
